# ASSAY: RNA encapsulation efficiency of LNPs by Quant-IT Ribogreen
# Format: physicochemical
# CONDITION_CONTEXT: LNPs with luciferase mRNA; ionizable lipid:non-cationic lipid:sterol:PEG-modified lipid 50:10:38.5:1.5; percentage of RNA entrapped in the LNP
PROPERTY: Encaps. efficiency (%)
The answer consists of two parts: a number and, after it, its unit.

CCCCCCCCCCCCCCCCCCOC(=O)CCSCCC(NC(=O)CCCCCCCCCCCCCCCCC)C(=O)NCCCN1CCOCC1 (stereo not shown): 71.74%
CCCCCCCCCCCCCCCCCCOC(=O)CCSCCC(C(=O)NCCCn1ccnc1)C(=O)OC(CCCCCCCC)CCCCCCCC (stereo not shown): 89.08%
CCCCCCCCC(CCCCCC)C(=O)NC(CCSCCC(=O)OCCCCCCCC(C)C)C(=O)NCCCN(C)C (stereo not shown): 96.01%
CCCCCCCCOC(=O)CCSCC(CC(=O)NCCCN1CCOCC1)C(=O)OC(CCCCCCCC)CCCCCCCC (stereo not shown): 29.06%
CCCCCCCCCCCCCCCCCCOC(=O)CCSCCC(NC(=O)C(CCCCCC)CCCCCCCC)C(=O)NCCCn1ccnc1 (stereo not shown): 33.79%

Provide each entry's Encaps. efficiency (%) from the list below.
1. CCCCCCCCCCCCCOC(=O)CCSCCC(NC(=O)C(CCCCCC)CCCCCCCC)C(=O)NCCN1CCOCC1 (stereo not shown)
2. CCCCCCCCC(CCCCCCCC)OC(=O)C(CSCCC(=O)OCC(CC)CCCC)CC(=O)NCCCN1CCOCC1 (stereo not shown)

[reply]
40.58%
31.75%

###

Assign Apparent pKa to each entry below.
# ASSAY: Apparent pKa of LNPs comprising the ionizable lipid (Table 6)
# CONDITION_CONTEXT: standard formulation 50:10:38.5:1.5
Answers are plain numbers.

Recorded results for 10 compounds are shown here.
CCCCCCCCCCCCCOC(=O)CCSCCC(NC(=O)C(CCCCCC)CCCCCCCC)C(=O)NCCN1CCOCC1 (centres unmarked) [VC-LC-0392]: 4.72
CCCCCCCCC(CCCCCC)C(=O)NC(CCSCCC(=O)OCCCCCCC)C(=O)NCCCN(CCO)CCO (centres unmarked) [VC-LC-0207]: 7.18
CCCCCCCCCCC(CCCCCCCC)C(=O)NC(CCSCCC(=O)OCC(CC)CCCC)C(=O)NC1CCN(C)CC1 (centres unmarked) [VC-LC-0559]: 6.40
CCCCCCCCC(CCCCCC)C(=O)NC(CCSCCC(=O)OCCCCCC)C(=O)NCCCn1ccnc1 (centres unmarked) [VC-LC-0268]: 6.18
CCCCCCCCCCCCCCOC(=O)CCSCCC(NC(=O)C(CCCCCC)CCCCCCCC)C(=O)NCCN(CC)CC (centres unmarked) [VC-LC-0478]: 6.82
CCCCCCCCCCC(CCCCCCCC)C(=O)NC(CCSCCC(=O)OCCCCCCCC)C(=O)NCC1CCN(C)CC1 (centres unmarked) [VC-LC-0519]: 6.69
CCCCCCCCCCCCOC(=O)CCSCC(CC(=O)NCCCN1CCOCC1)C(=O)OC(CCCCCCCC)CCCCCCCC (centres unmarked) [VC-LC-0544]: 6.53
CCCCCCCCCCCCCOC(=O)CCSCCC(NC(=O)C(CCCCCC)CCCCCCCC)C(=O)NCCN(CC)CC (centres unmarked) [VC-LC-0473]: 6.73
CCCCCCCCC(CCCCCC)C(=O)NC(CCSCCC(=O)OCC(CC)CCCC)C(=O)NCCCn1ccnc1 (centres unmarked) [VC-LC-0259]: 6.21
CCCCCCCCCCCCCCCCOC(=O)CCSCCC(C(=O)NCCCn1ccnc1)C(=O)OC(CCCCCCCC)CCCCCCCC (centres unmarked) [VC-LC-0369]: 6.02

Provide each entry's Apparent pKa from the list below.
1. CCCCCCCC/C=C\CCCCCCCC(=O)NC(CCSCC(=O)OCCCCCCCCCCCCC)C(=O)NCCCN1CCOCC1 (centres unmarked) [VC-LC-0338]
2. CCCCCCCCCCC(CCCCCCCC)C(=O)NC(CCSCCC(=O)OCCCCCC(C)C)C(=O)NCC1CCN(C)CC1 (centres unmarked) [VC-LC-0515]

[reply]
1: 6.64; 2: 7.26

Provide each entry's Apparent pKa from the list below.
1. CCCCCCCCCCCCCCOC(=O)CCSCCC(NC(=O)C(CCCCCCCC)CCCCCCCCCC)C(=O)NCCCN1CCOCC1 (centres unmarked) [VC-LC-0577]
2. CCCCCCCCCCCCCCCCOC(=O)CCSCCC(NC(=O)C(CCCCCC)CCCCCCCC)C(=O)NCCN(CC)CC (centres unmarked) [VC-LC-0480]
3. CCCCCCCCOC(=O)CCSCCC(NC(=O)C(CCCCCC)CCCCCCCC)C(=O)NCCCN1CCOCC1 (centres unmarked) [VC-LC-0176]

[reply]
1: 5.69; 2: 6.37; 3: 5.77

Provide each entry's Apparent pKa from the list below.
1. CCCCCCCCC(CCCCCC)COC(=O)C(CCSCCC(=O)OCC(CC)CCCC)C(=O)NCCCN1CCOCC1 (centres unmarked) [VC-LC-0608]
2. CCCCCCCC#CCOC(=O)CCSCCC(NC(=O)C(CCCCCC)CCCCCCCC)C(=O)NCCN(CC)CC (centres unmarked) [VC-LC-0488]

[reply]
[5.88, 6.79]

Provide each entry's Apparent pKa from the list below.
1. CCCCCCCCCCCCCCOC(=O)CCSCC(CC(=O)NCCCn1ccnc1)C(=O)OC(CCCCCCCC)CCCCCCCC (centres unmarked) [VC-LC-0299]
2. CCCCCCCCC(CCCCCCCC)OC(=O)C(CSCCC(=O)OCCCCCCCC(C)C)CC(=O)NCCCn1ccnc1 (centres unmarked) [VC-LC-0296]
3. CCCCCCCCC(CCCCCC)COC(=O)C(CCSCCC(=O)OCCCCCCCC(C)C)C(=O)NCCCN1CCOCC1 (centres unmarked) [VC-LC-0607]
4. CCCCCCCC#CCOC(=O)CCSCCC(NC(=O)CCCCCCCCCCCCCCCCC)C(=O)NCCCN1CCOCC1 (centres unmarked) [VC-LC-0390]

[reply]
1. 6.09
2. 5.62
3. 5.89
4. 6.10

###

# ASSAY: Size distribution, polydispersity and Z-potential of LNPs by dynamic light scattering (Malvern Zetasizer)
# Format: physicochemical
# CONDITION_CONTEXT: LNPs, standard formulation 50:10:38.5:1.5; DLS
Label Condition met for high-side Z Potential (± D.E.) [mV] (at or above -8 mV) and Condition not met for low-side Z Potential (± D.E.) [mV] (below it).

CCCCCCCCCCCCCOC(=O)CCSCC(CC(=O)NCCCn1ccnc1)C(=O)OC(CCCCCCCC)CCCCCCCC (stereo not shown) [VC-LC-0294]: Condition not met
CCCCCCCCCCCCCOC(=O)CCSCCC(NC(=O)C(CCCCCCCC)CCCCCCCCCC)C(=O)NC1CCN(C)CC1 (stereo not shown) [VC-LC-0556]: Condition met
CCCCCCCCC(CCCCCCCC)OC(=O)C(CSCCC(=O)OCC(CC)CCCC)CC(=O)NCCCN1CCOCC1 (stereo not shown) [VC-LC-0543]: Condition not met
CCCCCCCC#CCOC(=O)CCSCC(CC(=O)NC1CCN(C)CC1)C(=O)OCC(CCCCCC)CCCCCCCC (stereo not shown) [VC-LC-0538]: Condition met

[ask] Entry CCCCCCCCCCCCCOC(=O)CCSCCC(C(=O)NC1CCN(C)CC1)C(=O)OC(CCCCCCCC)CCCCCCCC (stereo not shown) [VC-LC-0441] : is its Z Potential (± D.E.) [mV] no less than -8 mV?
[reply] Condition met

[ask] Entry CCCCCCCC#CCOC(=O)CCSCCC(NC(=O)CCCCCCCCCCCCCCCCC)C(=O)NC1CCN(C)CC1 (stereo not shown) [VC-LC-0437] : is its Z Potential (± D.E.) [mV] no less than -8 mV?
[reply] Condition met

###

# ASSAY: Apparent pKa of LNPs comprising the ionizable lipid (Table 6)
# CONDITION_CONTEXT: standard formulation 50:10:38.5:1.5
PROPERTY: Apparent pKa

Provide each entry's Apparent pKa from the list below.
1. CCCCCCCCCCCCCOC(=O)CCSCCC(C(=O)NCCCN1CCOCC1)C(=O)OCC(CCCCCC)CCCCCCCC (stereo not shown)
2. CCCCCCCC/C=C\CCCCCCCCOC(=O)CCSCCC(NC(=O)CCCCCCCCCCCCCCCCC)C(=O)NC1CCN(C)CC1 (stereo not shown)
3. CCCCCCCC/C=C\CCCCCCCC(=O)NC(CCSCCC(=O)OCCCCCCCC(C)C)C(=O)NCCCN(CCO)CCO (stereo not shown)
4. CCCCCCCC/C=C\CCCCCCCCOC(=O)CCSCCC(NC(=O)C(CCCCCC)CCCCCCCC)C(=O)NCCN(CC)CC (stereo not shown)
5. CCCCCCCCCCC(CCCCCCCC)C(=O)NC(CCSCCC(=O)OCCCCCC)C(=O)NC1CCN(C)CC1 (stereo not shown)
6. CCCCCCCCCCC(CCCCCCCC)C(=O)NC(CCSCCC(=O)OCCCCCC)C(=O)NCC1CCN(C)CC1 (stereo not shown)
7. CCCCCCCC/C=C\CCCCCCCCOC(=O)CCSCCC(NC(=O)C(CCCCCCCC)CCCCCCCCCC)C(=O)NCC1CCN(C)CC1 (stereo not shown)

[reply]
1: 5.68; 2: 6.61; 3: 7.06; 4: 6.03; 5: 6.57; 6: 6.67; 7: 7.32

Provide each entry's Apparent pKa from the list below.
1. CCCCCCCCCCCCCCCCOC(=O)CCSCCC(C(=O)NC1CCN(C)CC1)C(=O)OC(CCCCCCCC)CCCCCCCC (stereo not shown)
2. CCCCCCCCCCC(CCCCCCCC)C(=O)NC(CCSCCC(=O)OCCCCCCCC(C)C)C(=O)NC1CCN(C)CC1 (stereo not shown)

[reply]
1. 5.82
2. 5.95

Sourced from patent EP4371976B1
